Taken from patent US20260069689A1.

- system.name: T1, SARS-CoV2 Spike ecto foldon Trimer expressed with a C-terminal myc-myc-hexahistidine (SARS-CoV-2, UniProt P0DTC2 14-1213)
- T1 construct: extracellular domain
- measurement.protocol: SPR Biacore, mAb captured by anti-hFc, 25C
parameter.measured: koff (s⁻¹)
Answers are plain numbers, in s⁻¹.

// solved cases for koff follow
INSERT INTO measurements (binder, readout_value) VALUES
  ('mAb15162 (antibody, V domains shown) VH: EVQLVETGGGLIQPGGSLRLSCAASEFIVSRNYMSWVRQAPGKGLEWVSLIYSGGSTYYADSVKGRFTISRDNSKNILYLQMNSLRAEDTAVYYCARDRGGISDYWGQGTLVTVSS VL: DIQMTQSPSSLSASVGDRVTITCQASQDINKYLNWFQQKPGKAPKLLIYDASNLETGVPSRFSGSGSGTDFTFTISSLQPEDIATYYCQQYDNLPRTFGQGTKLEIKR', '6.79e-05'),
  ('mAb14284 (antibody, V domains shown) VH: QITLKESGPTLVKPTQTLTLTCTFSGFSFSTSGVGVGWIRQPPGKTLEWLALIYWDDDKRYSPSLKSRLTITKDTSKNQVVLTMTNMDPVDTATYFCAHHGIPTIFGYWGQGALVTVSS VL: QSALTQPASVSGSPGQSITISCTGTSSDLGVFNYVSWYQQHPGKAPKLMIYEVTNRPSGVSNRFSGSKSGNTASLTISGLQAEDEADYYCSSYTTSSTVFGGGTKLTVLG', '1.31e-05'),
  ('mAb14286 (antibody, V domains shown) VH: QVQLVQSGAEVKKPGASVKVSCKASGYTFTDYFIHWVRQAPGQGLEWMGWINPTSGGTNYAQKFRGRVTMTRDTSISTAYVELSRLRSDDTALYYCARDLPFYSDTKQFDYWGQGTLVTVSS VL: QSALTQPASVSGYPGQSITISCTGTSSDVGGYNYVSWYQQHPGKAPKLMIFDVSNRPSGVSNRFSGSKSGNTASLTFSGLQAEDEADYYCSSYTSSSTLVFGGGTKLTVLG', '8.71e-05');

Now look at this entry.
Query (binder): mAb15158 (antibody, V domains shown) VH: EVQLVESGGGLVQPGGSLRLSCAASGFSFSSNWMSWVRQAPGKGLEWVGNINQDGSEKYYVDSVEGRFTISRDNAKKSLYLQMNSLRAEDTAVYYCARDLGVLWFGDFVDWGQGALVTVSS VL: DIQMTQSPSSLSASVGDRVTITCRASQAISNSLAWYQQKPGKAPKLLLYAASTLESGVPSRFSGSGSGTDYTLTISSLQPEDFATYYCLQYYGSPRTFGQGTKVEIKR ; field requested: koff 1.4e-05
